Entry source: PubChem BioAssay (NCI)

Reported growth values are given for each entry in this list.
test system: NCI-H460 lung; assay: NCI-60 one-dose screen, 48 h (100 = growth as untreated, 0 = no growth, -100 = all killed); details: 10 µM unless noted
This is part of a sample that, as a whole, favours compounds with a hit. Of some 83,000 tested, about 20% had one in any assay.

compound: Cc1cccc2ccccc12
growth [%]: 104

compound: COC(=O)C1(CC(C)=O)NC(=S)NC(=O)C1C#N (configuration not stated)
growth [%]: 134

compound: COc1ccc(/C=C\C(=O)/C=C/c2ccc(OC)cc2)cc1
growth [%]: 107

compound: Oc1ccc(N=Cc2ccc(OCc3ccccc3)cc2)cc1
growth [%]: 104

compound: COc1ccc(Nc2cc(Cl)ccc2C(=O)O)cn1
growth [%]: 113

compound: O=C1C=CC(=O)C2=C1CCCC2
growth [%]: 95.9

compound: C=CCc1cc(OC)c(O)c(OC)c1
growth [%]: 108
